B1: TPR 5TU (parent)
chain: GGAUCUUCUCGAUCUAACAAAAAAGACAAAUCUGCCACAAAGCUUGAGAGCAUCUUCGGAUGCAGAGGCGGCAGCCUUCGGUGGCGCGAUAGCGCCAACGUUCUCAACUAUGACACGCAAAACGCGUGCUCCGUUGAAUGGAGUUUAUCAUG

Variants of: B1
Experiment summary: polymerase ribozyme fitness, log enrichment relative to wild type (log ratio); higher = more active; in vitro selection for triplet polymerase activity
Fewer inactive variants are shown than the library holds.
Reported property: polymerase ribozyme fitness (log ratio)

[[record]]
variant_spec = "G42A U53A"
reported_property = "polymerase ribozyme fitness (log ratio)"
result = "≤ -4.2"

[[record]]
variant_spec = "G1U"
reported_property = "polymerase ribozyme fitness (log ratio)"
result = 0.22

[[record]]
variant_spec = "C54A U55A A106G G141A G143C C149G"
reported_property = "polymerase ribozyme fitness (log ratio)"
result = "≤ -4.2"

[[record]]
variant_spec = "C5A C96U"
reported_property = "polymerase ribozyme fitness (log ratio)"
result = 0.321

[[record]]
variant_spec = "C99U A150G"
reported_property = "polymerase ribozyme fitness (log ratio)"
result = -0.552

[[record]]
variant_spec = "A21U G59C G126U"
reported_property = "polymerase ribozyme fitness (log ratio)"
result = 0.721

[[record]]
variant_spec = "C75U U78C G84A"
reported_property = "polymerase ribozyme fitness (log ratio)"
result = -1.65

[[record]]
variant_spec = "C57U A142C"
reported_property = "polymerase ribozyme fitness (log ratio)"
result = -0.377

[[record]]
variant_spec = "G42C G46A G68C C95A A106U C108G"
reported_property = "polymerase ribozyme fitness (log ratio)"
result = "≤ -4.2"

[[record]]
variant_spec = "G92C U146A"
reported_property = "polymerase ribozyme fitness (log ratio)"
result = -0.323

[[record]]
variant_spec = "C76A G152A"
reported_property = "polymerase ribozyme fitness (log ratio)"
result = -2.86

[[record]]
variant_spec = "G50C C57A A66C C85G"
reported_property = "polymerase ribozyme fitness (log ratio)"
result = "≤ -4.2"

[[record]]
variant_spec = "C63G G67C U135G"
reported_property = "polymerase ribozyme fitness (log ratio)"
result = "≤ -4.2"

[[record]]
variant_spec = "C35U C116A"
reported_property = "polymerase ribozyme fitness (log ratio)"
result = -0.104

[[record]]
variant_spec = "A12C C93U"
reported_property = "polymerase ribozyme fitness (log ratio)"
result = -2.17

[[record]]
variant_spec = "U55A C85U A122G A142G U145G"
reported_property = "polymerase ribozyme fitness (log ratio)"
result = -2.39

[[record]]
variant_spec = "A3C C85U C95U C114U G133C"
reported_property = "polymerase ribozyme fitness (log ratio)"
result = "≤ -4.2"

[[record]]
variant_spec = "C87G U134A"
reported_property = "polymerase ribozyme fitness (log ratio)"
result = "≤ -4.2"

[[record]]
variant_spec = "U15G G50U U61A C93G C105U A107G"
reported_property = "polymerase ribozyme fitness (log ratio)"
result = "≤ -4.2"

[[record]]
variant_spec = "A23C C87G A91G C99A C103G"
reported_property = "polymerase ribozyme fitness (log ratio)"
result = "≤ -4.2"

[[record]]
variant_spec = "A28U A66C C72U A91C C114U"
reported_property = "polymerase ribozyme fitness (log ratio)"
result = "≤ -4.2"

[[record]]
variant_spec = "G48U G65A C95U C105U C129G C132U"
reported_property = "polymerase ribozyme fitness (log ratio)"
result = "≤ -4.2"

[[record]]
variant_spec = "C57U C85U A89C U127A"
reported_property = "polymerase ribozyme fitness (log ratio)"
result = -4.18

[[record]]
variant_spec = "C87G C105U U127C"
reported_property = "polymerase ribozyme fitness (log ratio)"
result = -4.1

[[record]]
variant_spec = "A24U A29C A73G G86U A89C G140U A150G"
reported_property = "polymerase ribozyme fitness (log ratio)"
result = "≤ -4.2"

[[record]]
variant_spec = "U7G A16C"
reported_property = "polymerase ribozyme fitness (log ratio)"
result = -2.38

[[record]]
variant_spec = "C14G U78A G86A"
reported_property = "polymerase ribozyme fitness (log ratio)"
result = "≤ -4.2"

[[record]]
variant_spec = "U90C"
reported_property = "polymerase ribozyme fitness (log ratio)"
result = -2.87

[[record]]
variant_spec = "A20C A39U A106G C131U A138U"
reported_property = "polymerase ribozyme fitness (log ratio)"
result = "≤ -4.2"

[[record]]
variant_spec = "U4A C8U C108G G140C"
reported_property = "polymerase ribozyme fitness (log ratio)"
result = "≤ -4.2"

[[record]]
variant_spec = "A12U A20U C54U A73G A91U C99U U146G"
reported_property = "polymerase ribozyme fitness (log ratio)"
result = "≤ -4.2"

[[record]]
variant_spec = "A47U G48C"
reported_property = "polymerase ribozyme fitness (log ratio)"
result = -1.39

[[record]]
variant_spec = "C5G C38U A39C C95A G100C"
reported_property = "polymerase ribozyme fitness (log ratio)"
result = "≤ -4.2"

[[record]]
variant_spec = "A52C C85U U102C"
reported_property = "polymerase ribozyme fitness (log ratio)"
result = -2.57

[[record]]
variant_spec = "A16U A22U G117A C132A U151G"
reported_property = "polymerase ribozyme fitness (log ratio)"
result = "≤ -4.2"

[[record]]
variant_spec = "C103U A115G"
reported_property = "polymerase ribozyme fitness (log ratio)"
result = -1.14

[[record]]
variant_spec = "A24U C96U G117A G133A U145A"
reported_property = "polymerase ribozyme fitness (log ratio)"
result = "≤ -4.2"

[[record]]
variant_spec = "C79U U90A A137G"
reported_property = "polymerase ribozyme fitness (log ratio)"
result = "≤ -4.2"

[[record]]
variant_spec = "A91C A113G A138U"
reported_property = "polymerase ribozyme fitness (log ratio)"
result = "≤ -4.2"

[[record]]
variant_spec = "C14G C57A G92A C96U A107C G124U"
reported_property = "polymerase ribozyme fitness (log ratio)"
result = "≤ -4.2"

[[record]]
variant_spec = "C35U U55A G84U A147C"
reported_property = "polymerase ribozyme fitness (log ratio)"
result = -2.79

[[record]]
variant_spec = "A16C C18U C38U A39C A49U G67A U134G"
reported_property = "polymerase ribozyme fitness (log ratio)"
result = "≤ -4.2"

[[record]]
variant_spec = "C96A U135C"
reported_property = "polymerase ribozyme fitness (log ratio)"
result = -1.91

[[record]]
variant_spec = "U55G A98U U144G"
reported_property = "polymerase ribozyme fitness (log ratio)"
result = 0.317

[[record]]
variant_spec = "A52C C57U C63A C72G U77A C85A A107U A122U G136C U148A"
reported_property = "polymerase ribozyme fitness (log ratio)"
result = "≤ -4.2"

[[record]]
variant_spec = "C38A U56A G74C G92U U109G"
reported_property = "polymerase ribozyme fitness (log ratio)"
result = "≤ -4.2"

[[record]]
variant_spec = "A39C C96G A137U"
reported_property = "polymerase ribozyme fitness (log ratio)"
result = "≤ -4.2"

[[record]]
variant_spec = "G59C G81U G83A G124A G141U"
reported_property = "polymerase ribozyme fitness (log ratio)"
result = 0.692

[[record]]
variant_spec = "G34U A37U U55A G136U"
reported_property = "polymerase ribozyme fitness (log ratio)"
result = "≤ -4.2"

[[record]]
variant_spec = "A26U C36A G68C G86U G88C"
reported_property = "polymerase ribozyme fitness (log ratio)"
result = "≤ -4.2"

[[record]]
variant_spec = "C14G G92U"
reported_property = "polymerase ribozyme fitness (log ratio)"
result = -2.61

[[record]]
variant_spec = "A60G G84A C118A"
reported_property = "polymerase ribozyme fitness (log ratio)"
result = -0.875

[[record]]
variant_spec = "A39U U61C C96A"
reported_property = "polymerase ribozyme fitness (log ratio)"
result = -3.93

[[record]]
variant_spec = "A40G U53G A73G G81U G94A"
reported_property = "polymerase ribozyme fitness (log ratio)"
result = "≤ -4.2"

[[record]]
variant_spec = "G67U G83U U101G"
reported_property = "polymerase ribozyme fitness (log ratio)"
result = "≤ -4.2"

[[record]]
variant_spec = "A3U A23U C96U"
reported_property = "polymerase ribozyme fitness (log ratio)"
result = "≤ -4.2"

[[record]]
variant_spec = "U7A A23C G50U G59A A73C G86U C95G C108U"
reported_property = "polymerase ribozyme fitness (log ratio)"
result = "≤ -4.2"

[[record]]
variant_spec = "A19U C87U G141U U146C"
reported_property = "polymerase ribozyme fitness (log ratio)"
result = 0.666

[[record]]
variant_spec = "A20U G46A C76A C87G G94C C105G U144A"
reported_property = "polymerase ribozyme fitness (log ratio)"
result = "≤ -4.2"

[[record]]
variant_spec = "G86A A89U"
reported_property = "polymerase ribozyme fitness (log ratio)"
result = -1.96

[[record]]
variant_spec = "C105G A120U"
reported_property = "polymerase ribozyme fitness (log ratio)"
result = -0.931

[[record]]
variant_spec = "A29C G92A G143C U146C"
reported_property = "polymerase ribozyme fitness (log ratio)"
result = "≤ -4.2"

[[record]]
variant_spec = "C14U A21G A29G C85U C116A"
reported_property = "polymerase ribozyme fitness (log ratio)"
result = -4.2

[[record]]
variant_spec = "C103G U151A"
reported_property = "polymerase ribozyme fitness (log ratio)"
result = "≤ -4.2"

[[record]]
variant_spec = "A39G C105G"
reported_property = "polymerase ribozyme fitness (log ratio)"
result = -3.19

[[record]]
variant_spec = "C63U G141U"
reported_property = "polymerase ribozyme fitness (log ratio)"
result = 1.25

[[record]]
variant_spec = "C5U C38U C63A U77A C95U U127G G136U U144C"
reported_property = "polymerase ribozyme fitness (log ratio)"
result = "≤ -4.2"

[[record]]
variant_spec = "A22C A24G A26U A52G G80A C85G G94U C123U"
reported_property = "polymerase ribozyme fitness (log ratio)"
result = "≤ -4.2"

[[record]]
variant_spec = "A37U A115C A119C"
reported_property = "polymerase ribozyme fitness (log ratio)"
result = -2.95

[[record]]
variant_spec = "A41C G50A G74A U82G C95U A107C"
reported_property = "polymerase ribozyme fitness (log ratio)"
result = "≤ -4.2"

[[record]]
variant_spec = "A23C A29U C38U C54A G84A A98U A106G A137U"
reported_property = "polymerase ribozyme fitness (log ratio)"
result = "≤ -4.2"

[[record]]
variant_spec = "A40U C114U G141C G152U"
reported_property = "polymerase ribozyme fitness (log ratio)"
result = -3.44

[[record]]
variant_spec = "C51U G92C U135C"
reported_property = "polymerase ribozyme fitness (log ratio)"
result = -3.1

[[record]]
variant_spec = "G50U C54G A150U"
reported_property = "polymerase ribozyme fitness (log ratio)"
result = -2.15

[[record]]
variant_spec = "G59C C95A C99G"
reported_property = "polymerase ribozyme fitness (log ratio)"
result = "≤ -4.2"

[[record]]
variant_spec = "U15A C27G U55A C57G G94U C105U G136A G143U"
reported_property = "polymerase ribozyme fitness (log ratio)"
result = "≤ -4.2"

[[record]]
variant_spec = "G42A A49C C54U C95U C118U"
reported_property = "polymerase ribozyme fitness (log ratio)"
result = "≤ -4.2"

[[record]]
variant_spec = "C32U"
reported_property = "polymerase ribozyme fitness (log ratio)"
result = -1.22

[[record]]
variant_spec = "G58C A107C"
reported_property = "polymerase ribozyme fitness (log ratio)"
result = -4.06

[[record]]
variant_spec = "U53A G143A U146C"
reported_property = "polymerase ribozyme fitness (log ratio)"
result = -2.83

[[record]]
variant_spec = "G86A A122G U148G"
reported_property = "polymerase ribozyme fitness (log ratio)"
result = "≤ -4.2"

[[record]]
variant_spec = "G68U A73U G94A A119U"
reported_property = "polymerase ribozyme fitness (log ratio)"
result = "≤ -4.2"

[[record]]
variant_spec = "A66G U82G C93A"
reported_property = "polymerase ribozyme fitness (log ratio)"
result = "≤ -4.2"

[[record]]
variant_spec = "C103A A115C"
reported_property = "polymerase ribozyme fitness (log ratio)"
result = -2.54

[[record]]
variant_spec = "U6G A19U G50C G88U C99G"
reported_property = "polymerase ribozyme fitness (log ratio)"
result = "≤ -4.2"

[[record]]
variant_spec = "G143C U145G"
reported_property = "polymerase ribozyme fitness (log ratio)"
result = -1.8

[[record]]
variant_spec = "A12C A29U A66G U101G C131G"
reported_property = "polymerase ribozyme fitness (log ratio)"
result = "≤ -4.2"

[[record]]
variant_spec = "C18U A30U G65U G84U C105U"
reported_property = "polymerase ribozyme fitness (log ratio)"
result = "≤ -4.2"

[[record]]
variant_spec = "U53A A91G G124A U139G U146A"
reported_property = "polymerase ribozyme fitness (log ratio)"
result = -3.5

[[record]]
variant_spec = "G65A C93U"
reported_property = "polymerase ribozyme fitness (log ratio)"
result = -1.96

[[record]]
variant_spec = "A20C U144G"
reported_property = "polymerase ribozyme fitness (log ratio)"
result = 0.273


FYI, the data here is from the RNAGym collection of RNA variant scans (doi:10.1073/pnas.2313332121).
